This collection of values is drawn from the kinase profiling compilation of Christmann-Franck et al. (2016).

- measurement target: FLT1 (human)
- method summary: radiometric filter-binding kinase assay
- setup conditions: compound 10.0 µM
Here the recorded residual activity is given for each entry.
property name: residual activity (%)

> print(dat)
                                    compound      property.name  recorded.result
 1          NC(=O)c1c(NC(=O)C2CC2)sc2c1CCCC2  residual activity                9
 2  NC(=O)Nc1ccc2c(c1)/C(=C/c1cc(-c3cccnc3)c[nH]1)C(=O)N2  residual activity                1
 3  O=C(O)c1ccc(-c2c[nH]c3ncc(-c4ccccc4)cc23)cc1C1CCCC1  residual activity               15
 4  O=C(O)c1cc(N=Nc2ccc(S(=O)(=O)Nc3ccccn3)cc2)ccc1O  residual activity              105
 5  CCOC(=O)c1ccc(N2NC(=O)/C(=C/c3ccc([N+](=O)[O-])o3)C2=O)cc1  residual activity               47
 6    CCn1c(-c2nonc2N)nc2cncc(CNC3CCNCC3)c21  residual activity               83
 7  O=C(Nc1ccccc1-c1cn2c(CN3CCNCC3)csc2n1)c1cnc2ccccc2n1  residual activity               53
 8  O=C1Nc2nc(-c3c(O)cccc3OCC3CC3)cc(C3CCCNC3)c2CO1 (stereo unspecified)  residual activity              116
 9  CCCCCc1ccc(/C=C/[C@H](O)[C@@H](CO)NC)cc1  residual activity               83
10  O=C(NOCC(O)CO)c1ccc(F)c(F)c1Nc1ccc(I)cc1Cl (stereo unspecified)  residual activity               42
11                       COC(=O)/C=C/C(=O)OC  residual activity              108

---

As shown below, each of these molecules has a reported residual activity value.
- measurement target: SRPK1 (human) (UniProt Q96SB4)
- Sequence (Q96SB4 whole entry, looked up): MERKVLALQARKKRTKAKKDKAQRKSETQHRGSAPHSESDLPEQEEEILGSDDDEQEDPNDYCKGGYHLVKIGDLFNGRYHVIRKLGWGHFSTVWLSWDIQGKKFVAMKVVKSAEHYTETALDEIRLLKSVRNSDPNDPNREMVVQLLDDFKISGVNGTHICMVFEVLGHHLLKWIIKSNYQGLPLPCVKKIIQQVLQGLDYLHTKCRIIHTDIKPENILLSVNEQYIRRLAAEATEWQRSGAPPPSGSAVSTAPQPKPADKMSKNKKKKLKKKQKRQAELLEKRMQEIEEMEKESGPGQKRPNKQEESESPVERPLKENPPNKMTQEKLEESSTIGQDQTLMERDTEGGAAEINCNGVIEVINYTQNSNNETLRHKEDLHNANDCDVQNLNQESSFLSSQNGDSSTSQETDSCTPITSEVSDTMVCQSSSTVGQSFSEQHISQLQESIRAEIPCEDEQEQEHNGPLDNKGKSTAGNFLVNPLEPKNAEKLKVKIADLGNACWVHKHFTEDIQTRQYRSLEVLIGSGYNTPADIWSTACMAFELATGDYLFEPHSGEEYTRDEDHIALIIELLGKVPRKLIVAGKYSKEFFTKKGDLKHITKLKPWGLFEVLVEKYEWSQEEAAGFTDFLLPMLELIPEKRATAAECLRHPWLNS
- method summary: radiometric filter-binding kinase assay
- setup conditions: compound 0.1 µM

molecule	residual activity [%]
O=C(Nc1ccccc1-c1cn2c(CN3CCNCC3)csc2n1)c1cnc2ccccc2n1	94
CNC(=O)C1[C@H]2O[C@@](C)([C@@H]1N)n1c3ccccc3c3c4c(c5c6ccccc6n2c5c31)C(=O)NC4 (stereo not given in full)	53
O=C(NCCCNc1nc(Nc2cccc(CN3CCOCC3)c2)ncc1C1CC1)C1CCC1	86
CNc1nc(-c2ccc3c(N)n[nH]c3c2)cc(N2C[C@@H](C(=O)NC3CCCCC3)CC[C@H]2C)n1	120
COc1cc(O)c2c(c1)[C@H]1OC1C[C@H](O)[C@H](O)C(=O)/C=C\C[C@H](C)OC2=O (stereo not given in full)	95
CCc1cncnc1N1CCN(Cc2nc3cc(C(F)(F)F)ccc3[nH]2)CC1	108
NC(=O)c1cc(-c2ccnc(NC3CCCCC3)c2)nc(N2CCNCC2)c1	105
COc1cc(O)c2c(c1)/C=C/C[C@H](O)[C@H](O)C(=O)/C=C\C[C@H](C)OC2=O	104
NC(=O)Nc1ccc2c(c1)/C(=C/c1cc(-c3cccnc3)c[nH]1)C(=O)N2	90
NC1(c2ccc(-c3nc4ccn5c(=O)[nH]nc5c4cc3-c3ccccc3)cc2)CCC1	107
COc1ccc(-n2ncc3cnc(Nc4cc(OC)c(OC)c(OCCCN5CCN(C)CC5)c4)nc32)cc1	104
O=C(O)c1ccc(-c2c[nH]c3ncc(-c4ccccc4)cc23)cc1C1CCCC1	82
c1ccc2c(-c3cnn4cc(-c5ccc(N6CCNCC6)cc5)cnc34)ccnc2c1	95
Cc1cc(NC(=O)c2cccc(NC(=O)/C=C/CN(C)C)c2)ccc1Nc1nccc(-c2cccnc2)n1	97
Cc1cccc(-c2nn(C(=S)Nc3ccccc3)cc2-c2ccnc3ccccc23)n1	101
CN1CCN(CCOc2cc(OC3CCOCC3)c3c(Nc4c(Cl)ccc5c4OCO5)ncnc3c2)CC1	82
Cc1ccc(Sc2cnc(Nc3cccc(Br)n3)s2)cc1C(=O)N1CCN(C(=O)CN)CC1	71
CN(C)C/C=C/C(=O)Nc1cccc(C(=O)Nc2ccc(Nc3nccc(-c4cccnc4)n3)cc2)c1	105
COc1ccc(N(C(=O)Nc2c(C)cccc2C)c2cc(Nc3ccc(N4CCN(C)CC4)cc3)ncn2)c(OC)c1	85
NC(=O)c1cc2c(-c3cccc(-c4ccccc4)c3)cnc(N)c2s1	87
O=C(Nc1nc2cc(C(F)(F)F)cc(NC3CC3)n2n1)c1cccnc1	90
CCCCCc1ccc(/C=C/[C@H](O)[C@@H](CO)NC)cc1	92
CC1=C(CO)C(=O)O[C@@H]([C@@H](C)[C@H]2CC[C@H]3[C@@H]4C[C@H]5O[C@]56[C@@H](O)C=CC(=O)[C@]6(C)C4CC[C@]23C)C1 (stereo not given in full)	89
Cn1c(=O)c2c(ncn2C)n(C)c1=O	93
C=CC(=O)N1CCC[C@@H](n2nc(-c3ccc(Oc4ccccc4)cc3)c3c(N)ncnc32)C1	100
O=C(N[C@@H](COc1ccc2[nH]c(=O)[nH]c2c1)c1ccccc1)c1cccn(Cc2ccc(F)c(F)c2)c1=O	107
Cc1ccc(-c2ccc3c(ccc4sc5c(c43)NC[C@@H](C)NC5=O)n2)cn1	89
COc1ccc2c(c1)c1c3c(c4c5ccccc5n(C)c4c1n2CC(O)CN(C)C)C(=O)NC3=O (stereo not given)	113
C/C(=C1/C(=O)Nc2ccc(NC(N)=O)cc21)c1ccc[nH]1	93
CCn1c(-c2nonc2N)nc2cncc(CNC3CCNCC3)c21	94

---

- measurement target: TTK (human)
- method summary: radiometric filter-binding kinase assay
- setup conditions: compound 10.0 µM
property name: residual activity (%)

molecule	units text	recorded result
CC(C)C[C@H](NC(=O)CNC(=O)c1cc(Cl)ccc1Cl)B1OC(=O)CC(CC(=O)O)(C(=O)O)O1 (stereo partly drawn)	%	93
Nc1cccc2c1CN(C1CCC(=O)NC1=O)C2=O (stereo not drawn)	%	118
CCn1c(-c2nonc2N)nc2cncc(CNC3CCNCC3)c21	%	65
NCC(=O)Nc1ccc(-n2nc(C(F)(F)F)cc2-c2ccc3c(ccc4ccccc43)c2)cc1	%	86
O=C(O)c1ccc(-c2c[nH]c3ncc(-c4ccccc4)cc23)cc1C1CCCC1	%	46
c1ccc2c(-c3cnn4cc(-c5ccc(N6CCNCC6)cc5)cnc34)ccnc2c1	%	61
CC(C)(C#N)c1ccc(N2C(=O)OCc3cnc4ccc(-c5cnc6ccccc6c5)cc4c32)cc1	%	86
CC1=C(CO)C(=O)O[C@@H]([C@@H](C)[C@H]2CC[C@H]3[C@@H]4C[C@H]5O[C@]56[C@@H](O)C=CC(=O)[C@]6(C)C4CC[C@]23C)C1 (stereo partly drawn)	%	94
FC(F)(F)c1ccc(-c2ccc(Oc3cncc4sc(-c5nn[nH]n5)cc34)cc2)cc1	%	63
CNc1nc(-c2ccc3c(N)n[nH]c3c2)cc(N2C[C@@H](C(=O)NC3CCCCC3)CC[C@H]2C)n1	%	61
C=CC(=O)N1CCC[C@@H](n2nc(-c3ccc(Oc4ccccc4)cc3)c3c(N)ncnc32)C1	%	82
Cc1ccc(=O)n(-c2ccccc2)c1	%	76
O=C(Nc1ccccc1-c1cn2c(CN3CCNCC3)csc2n1)c1cnc2ccccc2n1	%	68
O=C(N[C@@H](COc1ccc2[nH]c(=O)[nH]c2c1)c1ccccc1)c1cccn(Cc2ccc(F)c(F)c2)c1=O	%	95
NC(=O)c1cc2c(-c3cccc(-c4ccccc4)c3)cnc(N)c2s1	%	24
O=C(NOC[C@H](O)CO)c1ccc(F)c(F)c1Nc1ccc(I)cc1Cl	%	121
COC(=O)/C=C/C(=O)OC	%	98
Cc1ccc(Sc2cnc(Nc3cccc(Br)n3)s2)cc1C(=O)N1CCN(C(=O)CN)CC1	%	42
N#Cc1c(O)c2c(-c3ccc(-c4ccccc4O)cc3)csc2[nH]c1=O	%	76
NC(=O)c1ccc(-c2ccc(Oc3cncc4sc(-c5nn[nH]n5)cc34)cc2)cc1	%	51
CCOC(=O)c1ccc(N2NC(=O)/C(=C/c3ccc([N+](=O)[O-])o3)C2=O)cc1	%	90
NC(=O)c1cc(-c2ccnc(NC3CCCCC3)c2)nc(N2CCNCC2)c1	%	79
CCNc1nc(Nc2cc(F)c(C(=O)N3CCOCC3)cc2OC)ncc1C(F)(F)F	%	32

---

- measurement target: HIPK2 (human) (UniProt Q9H2X6)
- Sequence (Q9H2X6 whole entry, looked up): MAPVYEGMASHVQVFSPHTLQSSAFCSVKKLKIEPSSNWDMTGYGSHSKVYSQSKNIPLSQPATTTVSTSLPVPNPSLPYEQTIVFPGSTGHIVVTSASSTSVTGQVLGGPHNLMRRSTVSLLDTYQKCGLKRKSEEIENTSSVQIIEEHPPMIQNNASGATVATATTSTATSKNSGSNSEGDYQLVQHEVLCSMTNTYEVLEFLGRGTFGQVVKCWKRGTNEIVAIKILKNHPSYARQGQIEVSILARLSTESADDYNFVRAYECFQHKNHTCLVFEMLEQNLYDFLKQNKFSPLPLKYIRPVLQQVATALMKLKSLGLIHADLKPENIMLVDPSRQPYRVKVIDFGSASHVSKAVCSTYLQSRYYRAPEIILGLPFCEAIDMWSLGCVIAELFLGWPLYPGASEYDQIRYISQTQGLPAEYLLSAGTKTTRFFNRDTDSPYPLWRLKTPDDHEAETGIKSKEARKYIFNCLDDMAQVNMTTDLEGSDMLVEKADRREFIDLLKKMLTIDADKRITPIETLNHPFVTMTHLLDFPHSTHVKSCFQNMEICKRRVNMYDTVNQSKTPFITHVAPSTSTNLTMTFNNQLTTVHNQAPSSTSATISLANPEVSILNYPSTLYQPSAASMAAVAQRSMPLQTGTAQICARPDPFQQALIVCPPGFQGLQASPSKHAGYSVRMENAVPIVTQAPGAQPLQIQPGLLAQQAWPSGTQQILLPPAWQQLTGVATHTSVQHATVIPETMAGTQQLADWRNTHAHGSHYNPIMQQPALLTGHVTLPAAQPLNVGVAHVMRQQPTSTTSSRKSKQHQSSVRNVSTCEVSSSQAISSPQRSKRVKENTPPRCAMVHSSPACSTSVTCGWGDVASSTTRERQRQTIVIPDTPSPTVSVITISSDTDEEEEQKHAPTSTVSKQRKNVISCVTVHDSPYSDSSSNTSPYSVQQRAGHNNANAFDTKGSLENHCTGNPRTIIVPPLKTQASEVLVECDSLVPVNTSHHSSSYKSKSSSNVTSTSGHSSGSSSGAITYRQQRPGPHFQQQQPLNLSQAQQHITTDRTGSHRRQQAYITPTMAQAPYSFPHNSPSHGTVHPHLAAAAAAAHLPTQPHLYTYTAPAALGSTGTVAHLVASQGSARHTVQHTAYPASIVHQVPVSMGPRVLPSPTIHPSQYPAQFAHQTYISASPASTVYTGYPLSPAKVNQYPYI
- method summary: radiometric filter-binding kinase assay
- setup conditions: compound 1.0 µM
Classification field: enter 1.0 for residual activity values not below 90%, 0.0 for values below it.

> print(dat)
                                   compound  label.value
1  O=C1Nc2nc(-c3c(O)cccc3OCC3CC3)cc(C3CCCNC3)c2CO1 (centres undefined)          0.0
2  CNC(=O)C1[C@H]2O[C@@](C)([C@@H]1N)n1c3ccccc3c3c4c(c5c6ccccc6n2c5c31)C(=O)NC4 (some centres undefined)          0.0
3           Cn1nc(Nc2ccc(F)cc2)c2c(N)ncnc21          1.0
4  O=C(N[C@@H](COc1ccc2[nH]c(=O)[nH]c2c1)c1ccccc1)c1cccn(Cc2ccc(F)c(F)c2)c1=O          1.0
5  O=C(NCCCNc1nc(Nc2cccc(CN3CCOCC3)c2)ncc1C1CC1)C1CCC1          1.0
6            Oc1ccc(/C=C/c2cc(O)cc(O)c2)cc1          0.0
